target: Apoptosis regulator Bcl-2 (Homo sapiens, UniProt P10415)
Sequence (P10415 whole entry): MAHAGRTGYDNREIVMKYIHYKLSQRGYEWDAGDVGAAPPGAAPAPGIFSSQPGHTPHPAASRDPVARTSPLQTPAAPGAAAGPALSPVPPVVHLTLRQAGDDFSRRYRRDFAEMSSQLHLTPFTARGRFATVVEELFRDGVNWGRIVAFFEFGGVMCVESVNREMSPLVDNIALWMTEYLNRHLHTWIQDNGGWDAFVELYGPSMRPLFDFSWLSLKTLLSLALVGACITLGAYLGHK
OBSERVATION_TYPE: pIC50
Numbers only, as −log10 of the molar value.

Worked set:
Cc1cccc(-n2nc(C(=O)N(c3ccccc3)c3ccccc3)cc2C)c1C(=O)N1Cc2ccccc2C[C@H]1CO (atropisomer aS) ... 6.68
CCCCN(CCCC)C(=O)c1nn(-c2cccc(C)c2C(=O)N2Cc3ccccc3C[C@H]2CN)c(C)c1Cl ... 7.38
Cc1cccc(-n2nc(C(=O)N(c3ccccc3)c3ccccc3)cc2C)c1C(=O)N1Cc2ccccc2CC1CO (stereo not given) ... 6.22
Cc1cccc(-n2nc(C(=O)N(c3ccccc3)c3ccccc3)cc2C)c1C(=O)N1Cc2ccccc2C[C@@H]1CO (atropisomer aR; form 3) ... 6.41

Moving on to the next compound.
Query: Return reported pIC50; argument: Cc1cccc(-n2nc(C(=O)N(c3ccccc3)c3ccccc3)cc2C)c1C(=O)N1Cc2ccccc2C[C@@H]1CO (atropisomer aR; form 1)
Response: 5.96
